# target_system: T1, human BMP6 (human, UniProt P22004 382-513, limits assumed)
# T1 construct: recombinant protein bought from R&D Systems or Peprotech; also called hBMP6; hBMP6_RD
# T1 sequence: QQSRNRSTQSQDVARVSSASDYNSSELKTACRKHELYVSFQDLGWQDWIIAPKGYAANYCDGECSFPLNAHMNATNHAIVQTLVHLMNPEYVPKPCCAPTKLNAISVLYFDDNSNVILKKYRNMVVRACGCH
# method_summary: specificity ELISA, coated antigen, IgG 0.2 uM
Would you mind telling me the reported Signal over background of each entry?

Lookup: What value of Signal over background has been reported for the following binder? Antibody 3 (antibody, human IgG1, lambda, V domains shown, germlined clone of NOV0800 (HCDR2-matured NOV0442_VL[Y49,G50,N51S]); human IgG1; back-up antibody; also called NOV0961; NOV961) VH: QVQLVESGGGLVKPGGSLRLSCAASGFTFSSYVVHWVRQAPGKGLEWVGRIKDHKQGYTTAYAASVKGRFTISRDDSKNTLYLQMNSLKTEDTAVYYCARVERSKSGFDNWGQGTLVTVSS VL: QSVLTQPPSVSGAPGQRVTISCTGSSSNIGAGYSVHWYQQLPGTAPKLLIYGSSERPSGVPDRFSGSKSGTSASLAITGLQAEDEADYYCQSWDSSQTLVVFGGGTKLTVLG
Found: 48

Lookup: // lookup Signal over background for Antibody 6 (antibody, human IgG1, lambda, V domains shown, germlined clone of NOV0798 (HCDR2-matured NOV0442_VL[Y49,G50,N51Q]); human IgG1; lead antibody; also called NOV0954; NOV954) VH: QVQLVESGGGLVKPGGSLRLSCAASGFTFSSYVVHWVRQAPGKGLEWVGRTRHSDMGYATSYAAPVKGRFTISRDDSKNTLYLQMNSLKTEDTAVYYCARVERSKSGFDNWGQGTLVTVSS VL: QSVLTQPPSVSGAPGQRVTISCTGSSSNIGAGYSVHWYQQLPGTAPKLLIYGQSERPSGVPDRFSGSKSGTSASLAITGLQAEDEADYYCQSWDSSQTLVVFGGGTKLTVLG
Found: 38

Lookup: Please look up its Signal over background: Antibody 5 (antibody, human IgG1, lambda, V domains shown, germlined clone of NOV0787 (HCDR2-matured NOV0442_VL[Y49,G50,N51Q]); human IgG1; lead antibody; also called NOV0951; NOV951) VH: QVQLVESGGGLVKPGGSLRLSCAASGFTFSSYVVHWVRQAPGKGLEWVGRIKRESSSYTTMYAAPVKGRFTISRDDSKNTLYLQMNSLKTEDTAVYYCARVERSKSGFDNWGQGTLVTVSS VL: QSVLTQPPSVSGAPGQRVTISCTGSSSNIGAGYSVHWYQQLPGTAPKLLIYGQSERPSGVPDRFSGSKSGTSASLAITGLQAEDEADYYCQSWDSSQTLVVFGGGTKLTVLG
Found: 65

Lookup: Please report the recorded Signal over background for Antibody 7 (antibody, human IgG1, lambda, V domains shown, germlined clone of NOV0806 (HCDR2-matured NOV0442_VL[Y49,G50,N51Q]); human IgG1; final lead; also called NOV0958; NOV958) VH: QVQLVESGGGLVKPGGSLRLSCAASGFTFSSYVVHWVRQAPGKGLEWVGRIRLETHGYAAEYAASVKGRFTISRDDSKNTLYLQMNSLKTEDTAVYYCARVERSKSGFDNWGQGTLVTVSS VL: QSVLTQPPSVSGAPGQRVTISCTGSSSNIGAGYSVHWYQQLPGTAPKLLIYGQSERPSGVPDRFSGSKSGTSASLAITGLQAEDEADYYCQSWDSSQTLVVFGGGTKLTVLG .
Found: 59
